# credit: patent US20090270379A1

# Test system: Staphylococcus aureus OC4172
# Procedure Text: In vitro antibacterial activity (MIC), microdilution broth method, strain A
# Format: cell-based
# Particulars: cation adjusted Mueller-Hinton broth, 35° C., 16-20 hours
Threshold 0.2 µg/mL. MIC below it: TRUE. MIC at it or above: FALSE.

compound="C[C@H]1COc2c(-c3cc4n(c3)CCNC4)c(F)cc3c(=O)c(C(=O)O)cn1c23 [Compound 35]" label_value=FALSE
compound="C[C@H]1Cn2cc(-c3ccc4c(=O)c(C(=O)O)cn(C5CC5)c4c3OC(F)F)cc2CN1 [Compound 7]" label_value=TRUE
compound="COc1c(-c2cc3n(c2)C[C@H](CO)N(C)C3)c(F)cc2c(=O)c(C(=O)O)cn(C3CC3)c12 [Compound 15]" label_value=TRUE
compound="C[C@H]1COc2c(C3=C[C@H]4CNCCN4C3)c(F)cc3c(=O)c(C(=O)O)cn1c23 [Compound 33]" label_value=FALSE
compound="C[C@H]1Cn2cc(-c3cc4c(cc3F)c(=O)c(C(=O)O)cn4C3CC3)cc2CN1 [Compound 19]" label_value=TRUE
compound="C[C@@H]1NCCn2cc(-c3c(F)cc4c(=O)c(C(=O)O)cn(C5CC5)c4c3OC(F)F)cc21 [Compound 29]" label_value=FALSE
compound="CN1CCN2CC(c3ccc4c(=O)c(C(=O)O)cn(C5CC5)c4c3OC(F)F)C[C@H]2C1 (stereo partly drawn) [Compound 5]" label_value=FALSE
compound="C[C@H]1Cn2cc(-c3cc4c(cc3F)c(=O)c(C(=O)O)cn4C3CC3)cc2CN1C [Compound 20]" label_value=FALSE
compound="COc1c(C2=C[C@H]3CNCCN3C2)c(F)cc2c(=O)c(C(=O)O)cn(C3CC3)c12 [Compound 32]" label_value=FALSE
compound="COc1c(-c2cc3n(c2)CCN[C@H]3C)c(F)cc2c(=O)c(C(=O)O)cn(C3CC3)c12 [Compound 16]" label_value=TRUE
compound="COc1c(-c2cc3n(c2)C[C@H](C)NC3)c(F)cc2c(=O)c(C(=O)O)cn(C3CC3)c12 [Compound 11]" label_value=TRUE
compound="CN[C@@H](C)C(=O)N1CCn2cc(-c3ccc4c(=O)c(C(=O)O)cn(C5CC5)c4c3OC(F)F)cc2C1 [Compound 10]" label_value=FALSE
compound="O=C(O)c1cn(-c2ccc(F)cc2F)c2nc(-c3cc4n(c3)CCN(Cc3ccccc3)C4)c(F)cc2c1=O [Compound 30]" label_value=FALSE
compound="C[C@H]1CN2CC(c3ccc4c(=O)c(C(=O)O)cn(C5CC5)c4c3OC(F)F)C[C@H]2CN1 (stereo partly drawn) [Compound 6]" label_value=FALSE
compound="COc1c(-c2cc3n(c2)CCN(Cc2ccccc2)C3)c(F)cc2c(=O)c(C(=O)O)cn(C3CC3)c12 [Compound 31]" label_value=FALSE
